- Test system: MCF7
- measurement description: NCI tumour cell line growth inhibition, 48 h
The source made the active and inactive calls. No stated cut-off is given here; in the data, active = GI50 up to about 1.1 µM and inactive = higher.
value kind: GI50

compound: CC(C)c1ccc(/C=C2/C=C(c3ccc4ccccc4c3)OC2=O)cc1
recorded result: 88.5 µM (inactive)
//
compound: NC1CNC(=O)c2cscc21 (stereo unspecified)
recorded result: > 100 µM (inactive)
//
compound: C=C[C@@]1(C)CC2CC[C@]3(C)C(C)=CC(=O)CC3[C@]2(C)CC1O (stereo partly specified)
recorded result: > 100 µM (inactive)
//
compound: C=CCOc1ccc(C2(c3ccc(OCC=C)cc3)C(=O)Nc3ccccc32)cc1
recorded result: 8.57 µM (inactive)
//
compound: CCCCCCCCCCCCNC(C)=O
recorded result: 17.1 µM (inactive)
//
compound: O=C(CBr)c1ccc2cc(Br)c3ccccc3c2c1
recorded result: 26.4 µM (inactive)
